Exercise: for every item that follows, state its recorded kon.
- Target: T1, human Trop-2-His protein (human, UniProt P09758 27-274)
- T1 construct: extracellular domain; Assay paragraphs say only 'Trop-2-His'; also called hTrop-2; Kactus Cat #TRP-HM121; not shown: His tag
- T1 sequence (looked up): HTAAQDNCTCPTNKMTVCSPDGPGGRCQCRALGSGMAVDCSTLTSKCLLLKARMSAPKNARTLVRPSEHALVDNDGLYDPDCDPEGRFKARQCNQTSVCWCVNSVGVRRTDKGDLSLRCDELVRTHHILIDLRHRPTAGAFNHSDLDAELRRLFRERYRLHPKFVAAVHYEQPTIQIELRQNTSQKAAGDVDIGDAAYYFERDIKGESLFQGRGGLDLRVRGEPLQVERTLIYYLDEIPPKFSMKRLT
- Assay summary: BLI (Gator Plus), purified Ab on HFC probe
One number for each entry, in M⁻¹ s⁻¹.

# count of solved cases: 4
63H3 (antibody, V domains shown, Rabbit-derived clone; LEM construct: VH + rabbit IgG CH1 + human IgG1 CH2-CH3) VH: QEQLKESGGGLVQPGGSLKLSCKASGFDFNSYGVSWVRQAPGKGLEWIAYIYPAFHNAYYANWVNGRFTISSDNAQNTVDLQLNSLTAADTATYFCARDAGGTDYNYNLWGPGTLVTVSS VL: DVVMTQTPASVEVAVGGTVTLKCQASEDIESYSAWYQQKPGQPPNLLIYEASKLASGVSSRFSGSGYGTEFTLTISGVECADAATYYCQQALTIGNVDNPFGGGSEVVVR :: 766000
9D7 (antibody, V domains shown, Rabbit-derived clone; LEM construct: VH + rabbit IgG CH1 + human IgG1 CH2-CH3) VH: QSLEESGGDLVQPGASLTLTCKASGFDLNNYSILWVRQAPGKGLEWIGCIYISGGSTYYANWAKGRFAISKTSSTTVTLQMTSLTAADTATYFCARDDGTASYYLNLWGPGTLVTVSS VL: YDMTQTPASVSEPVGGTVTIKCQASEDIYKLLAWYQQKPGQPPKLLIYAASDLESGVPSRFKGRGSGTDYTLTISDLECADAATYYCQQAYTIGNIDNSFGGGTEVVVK :: 432000
62E3 (antibody, V domains shown, Rabbit-derived clone; LEM construct: VH + rabbit IgG CH1 + human IgG1 CH2-CH3) VH: QEQLKESGGGLVQPGGSLKLSCKASGFDFNEYGVSWVRQAPGKGLEWIAYIYPAFHNTYYATWVNGRFTISSHNAQNTLYLQLNTLTAADTATYFCARDAGTTDYNFNLWGPGTLVTVSS VL: DVVMTQTASPVSAAVGGTVTIKCQASEDIESYLAWYQQKPGQPPKLLIYEASKLASGVSSRFSGSGYGTEFTLTISGVECADAATYYCQQALTIGNVDNPFGGGSEVVVK :: 726000
5D4 (antibody, V domains shown, Rabbit-derived clone; LEM construct: VH + rabbit IgG CH1 + human IgG1 CH2-CH3) VH: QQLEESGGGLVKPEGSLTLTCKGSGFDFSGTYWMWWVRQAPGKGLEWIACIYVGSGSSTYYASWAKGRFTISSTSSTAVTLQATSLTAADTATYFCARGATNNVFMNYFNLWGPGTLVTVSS VL: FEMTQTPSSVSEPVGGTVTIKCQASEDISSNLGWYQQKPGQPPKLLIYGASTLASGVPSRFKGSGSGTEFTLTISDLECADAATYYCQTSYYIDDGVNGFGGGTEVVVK :: 522000

QUERY: # input binder: 10A9-2 (antibody, V domains shown) VH: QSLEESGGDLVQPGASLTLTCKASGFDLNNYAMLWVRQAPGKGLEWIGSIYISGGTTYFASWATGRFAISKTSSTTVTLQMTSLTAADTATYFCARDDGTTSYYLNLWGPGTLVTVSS VL: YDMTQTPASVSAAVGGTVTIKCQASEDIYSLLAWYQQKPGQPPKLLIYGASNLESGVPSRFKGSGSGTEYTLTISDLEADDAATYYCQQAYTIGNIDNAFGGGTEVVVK ; wanted: its kon
RESULT: 335000
